Recorded inhibition, one value per entry.
target: Major prion protein (Homo sapiens) (UniProt P04156); test: reduces human prion protein on the cell surface, primary screen, cell-based, TR-FRET (AID 720596); settings: cell surface PrPC, TR-FRET read-out; at 13.8 µM; stronger effect = higher value; further: 0% = median of the test wells and 100% = reference compound wells
About 1,600 (0.43%) of roughly 370,000 compounds were called active. Many of the other results were omitted from the sample, so actives are more common in it than they were.
assay readout: inhibition (%)

INSERT INTO measurements (structure, meas_value) VALUES
  ('CCOc1ccc(CCNC(=O)C2CCN(c3ccc(N4CCOCC4)nn3)CC2)cc1OCC', -16.1),
  ('Cn1c(=S)sc2ccc3ccccc3c21', 51.9),
  ('c1ccc(-n2ncc(-c3nn[nH]n3)n2)cc1', 1.91),
  ('O=C(Nc1cccn(Cc2c(Cl)cccc2Cl)c1=O)c1ccc(Cl)cc1', 2.47),
  ('COc1ccc(Cn2cccc(NC(=O)Nc3ccc(C#N)cc3)c2=O)cc1', 4.26);
